Tested on: SNB-78 CNS
test method notes: NCI tumour cell line growth inhibition, 48 h
endpoint label: TGI

Solved cases (5 shown):
O=C1OC(Cl)C(N=P(c2ccccc2)(c2ccccc2)c2ccccc2)=C1Cl (stereo unspecified) ... > 100 µM
CN1CCN(Cc2nc3cccc4c3c([n+]2[O-])-c2ccccc2-4)CC1 ... > 100 µM
CC(=O)/C(=C\c1ccccc1)C(=O)Nc1ccccc1 ... > 100 µM
O=C(Nc1cc(Cl)c(Cl)cc1Cl)C(=O)C(C(=O)c1ccccc1)C1OC(=O)c2ccccc21 (stereo unspecified) ... > 100 µM
Oc1ccc2c(c1)OCC1(O)Cc3cc(O)c(O)cc3C21 (stereo unspecified) ... 20 µM

Turning to the following compound.
Return TGI for the following compound: CN(C)CCNC(=O)C1COc2cc(-c3cc(=O)c4ccccc4o3)ccc2O1 (stereo unspecified)
57.8 µM

* * *

Tested on: OVCAR-8 ovarian
test method notes: NCI tumour cell line growth inhibition, 48 h
endpoint label: TGI

Please review the entries below; each comes with its answer.
CNC(=O)c1ccc(C(=O)NCCCCCN(O)C(=O)CCC(=O)NCCCCCN(O)C(=O)CCC(=O)NCCCCCN(O)C(C)=O)c(O)c1O ... > 100 µM
CCOc1ccccc1C(=O)/C=C/c1cc2ccccc2[nH]c1=O ... 2.08 µM

Give the value of TGI reported for the following: O=C(Nc1cccc([N+](=O)[O-])c1)/C(=N\NC(=O)c1ccncc1)c1nc2ccc([N+](=O)[O-])cc2[nH]c1=O
> 100 µM

Quick one: give measured TGI for CC(=O)/C(=C\c1ccccc1)C(=O)Nc1ccccc1
> 100 µM

Given the compound CCOC(=O)/C=C/C1OC(C)(C)OC1/C=C/C(=O)OCC (stereo not given) , write its reported TGI.
82.7 µM

Fill in reported TGI for this entry: COC(=O)C1(CCC(=O)N(C)c2ccccc2)NNC2C(=O)N(c3ccccc3)C(=O)C21 (stereo not given)
> 10 µM

* * *

Test system: ACHN renal
test method notes: NCI tumour cell line growth inhibition, 48 h; in the data active = GI50 below about 0.43 µM; inactive = the rest
Mark one answer only. Choices: y for active, n for inactive

Assay outcome for O=c1[nH]nc(-c2nn(-c3ccc(Cl)cc3)cc2O)o1 : what was it?
y

Fill in: this test's call for CC(C)(C(=O)NCC(F)(F)C(F)(F)F)C(=O)N[C@@H]1C(=O)Nc2ccccc2-c2ccccc21 is ___
n

So what was the verdict on CCCCCN1C(=O)/C(=c2\sc3n(c2=O)C2C(NN=3)N(CC)C(=O)N2CC)c2ccccc21 (centres undefined) in this test?
n

Could you check what this test reported for COc1cc2nccc(Oc3ccc(NC(=O)C4(C(=O)Nc5ccc(F)cc5)CC4)cc3)c2cc1OC(=O)c1ccc(N)cc1 ?
n

Recorded test call requested for COc1ccc(C(O)c2cc3c(N)c(C(=O)Nc4ccccc4)sc3nc2C)cc1 (centres undefined)
y

* * *

Test system: LXFL 529 NSCLC
test method notes: NCI tumour cell line growth inhibition, 48 h
endpoint label: TGI

// solved cases for TGI follow
O=C1OC(Cl)C(N=P(c2ccccc2)(c2ccccc2)c2ccccc2)=C1Cl (configuration not stated) ... > 100 µM
Nc1nc2c3c(ncn3CC(O)CO2)n1 (configuration not stated) ... > 100 µM
CCCCCCCCCCCCC(CC)CCCCC(=O)O (configuration not stated) ... > 100 µM
CC[N-]c1nnnn1CC.[Au+].c1ccc([PH+](c2ccccc2)c2ccccc2)cc1 ... 2.04 µM
N#CC(C(=O)C(N)=O)c1ccccc1Cl (configuration not stated) ... > 100 µM

Return the recorded TGI value; entry: CN1CCN(Cc2nc3cccc4c3c([n+]2[O-])-c2ccccc2-4)CC1
> 100 µM

Consider the compound Cc1ccc(S(=O)(=O)NC2CCCCO2)cc1 (configuration not stated) and give its recorded TGI.
> 100 µM

Supply reported TGI belonging to this compound: CN1C(=O)N(C)C2(O)c3ccccc3C(=O)C12O (configuration not stated)
> 100 µM

Give TGI for CC[O-].CC[O-].CN(C)c1ccc([O-])cc1.CN(C)c1ccc([O-])cc1.[Ti+4]
> 100 µM

Note down TGI recorded for CC(=O)/C(=C\c1ccccc1)C(=O)Nc1ccccc1
> 100 µM

Note TGI for the compound shown: COC(=O)C(/C(=N/NC(N)=O)C(=O)Nc1c(C)cccc1C(C)(C)C)c1nc2ccc(Cl)cc2[nH]c1=O (configuration not stated)
> 100 µM

Specify measured TGI for COc1ccc(-c2csc(=[N+]3CCCCC3)s2)cc1 .
26.9 µM
